Just for reference, PubChem BioAssay is where these values come from.

Test: A549 cell viability effects, profiling panel, calcein-AM fluorescence, 48 h, basal (AID 1162); note: test concentration not given here
Details: higher = more signal
Response field class: string, computed from recorded z-score by ranges bin 0 (below -0.5), bin 1 (-0.5 to below 0.6), bin 2 (0.6 or more)

>>> df
                                    compound  category
 0  COC(=O)[C@@H]1N=C(c2ccc(OCCCO)cc2)O[C@@H]1c1ccccc1N=[N+]=[N-]     bin 1
 1  CCCCCN1CC=CC23O[C@@H]4C=CCOC(=O)[C@@H]4[C@H]2C(=O)N(C(CO)C(C)C)[C@@H]3C1=O (stereo partly specified)     bin 1
 2  CCCNC(=O)[C@@H]1c2ccccc2C(=O)N(Cc2ccccc2Cl)[C@H]1c1ccc(CO)cc1     bin 2
 3  CCCCc1nc2c(c3c1C[C@H](C)OC3)CN(CCC(C)C)CC2     bin 2
 4  O=C(CS)NCCCCCNC(=O)[C@H]1C[C@H]2C(=O)N3CCC[C@H]3C(=O)N2[C@H]1c1cccc(OCCO)c1     bin 2
 5  CC1CC/C=C\[C@H]2OC34C=CCN(C(C)C)C(=O)[C@H]3N(CCCO)C(=O)[C@@H]4C2C(=O)O1 (stereo partly specified)     bin 1
 6  C=CC[C@@H]1C=C[C@H](ON=C2c3cc(OC)ccc3O[C@H](c3cccc(OC)c3)[C@H]2O)[C@@H](CO)O1     bin 1
 7  C/C=C\[C@@H](NCc1ccccc1Br)[C@@H](O)Cc1ccccc1     bin 0
 8  Cc1cc2c(nc1C)CCCN2CC(C)ON=C1[C@H]2CCn3c(=O)n(-c4ccccc4)c(=O)n3[C@H]2[C@H](O)[C@@H]2O[C@H]12 (stereo partly specified)     bin 1
 9    CC(C)=NOCc1ccc(-c2cc(-c3ccccc3)no2)cc1     bin 2
10  CO[C@@H]1COC(=O)CC=C[C@@H](C)[C@@H]2C=C[C@@H](O)[C@@H](COC(=O)CC=C[C@H]1C)O2     bin 2
11  CC[C@@H](c1ccccc1)n1c(=O)n2n(c1=O)[C@H]1[C@H](O)[C@@H]3O[C@@H]3C(=NOCC=C(C)CCC=C(C)C)[C@H]1CC2     bin 0
12  CC(C)CON=C1C[C@@H](O)[C@@H](O)[C@@H]2[C@@H]3C(=O)N(Cc4ccccc4)C(=O)[C@@H]3CC[C@@H]12     bin 0
13  CCOC(=O)CCN1C(=O)[C@H]2[C@H]3[C@H](O)[C@H](O)CC(=NOC[C@@H](O)COCc4ccco4)[C@H]3CC[C@H]2C1=O     bin 0
14  C=CC[C@@H]1C=C[C@H](ON=C(C)CCN2CCc3nc(CC)c(CC)cc3C2)[C@@H](CO)O1     bin 2
